system: UACC-62 melanoma; assay: NCI-60 one-dose screen, 48 h (100 = growth as untreated, 0 = no growth, -100 = all killed); conditions: 10 µM unless noted
About 83,000 compounds went through this panel and 20% of them were active in at least one assay; those are over-represented in the sample as a whole. Active and inactive are the calls of the source. The calls were made as follows: active = growth percent below 10; inactive = the rest.
outcome_measure: growth

Reference set, count: 5
• COc1cc(/C=C/C(=O)/C=C/c2cc3ccc(Cl)cc3[nH]c2=O)ccc1O = 53.1% (inactive)
• CC(=O)ON1CCCC(P(=O)(OCOC(=O)C(C)(C)C)OCOC(=O)C(C)(C)C)C1=O (stereo not given) = -64.7% (active)
• O=C1CC23OC4ON=C(Br)C4C2C(O)c2ccccc2N13 (stereo not given) = 94.3% (inactive)
• O=C1CCC23OC(C(O)c4ccccc4N12)C1C(Br)=NOC13 (stereo not given) = 109% (inactive)
• Cc1nc2sc(C(=O)Nc3cccc(Cl)c3C)c(N)c2cc1C(C)O (stereo not given) = 30.7% (inactive)

Req: Report growth for Cc1cccc(C)c1Nc1nnc(-c2ccc(F)cc2)o1 please.
Resp: 103% (inactive)

Req: Now consider C=C1C(=O)O[C@H]2[C@H]1CC/C(COC(=O)c1c[nH]c3ccccc13)=C\CC[C@@]1(C)O[C@@H]21 .
Resp: -69.1% (active)

Req: Now the same for S=C(Nc1ccccc1)c1ccccn1
Resp: 90.3% (inactive)

Req: Record: C#CC[C@@H]1C[C@]2(C)[C@H]3CC[C@@H]4[C@H]5[C@H](C(=C)C)CC[C@]5(C(=O)O)CC[C@@]4(C)[C@]3(C)CC[C@H]2C(C)(C)[C@H]1O
Resp: 72.2% (inactive)

###

Here, each record is paired with measured growth data.
tested on: RPMI-8226 leukemia; assay: NCI-60 one-dose screen, 48 h (100 = growth as untreated, 0 = no growth, -100 = all killed); conditions: 10 µM unless noted
About 83,000 compounds went through this panel and 20% of them were active in at least one assay; those are over-represented in the sample as a whole.
All answers are understood in %, so give the number only.

- O=C(Nc1ccc(S(=O)(=O)NC2CCCCCC2)cc1)C(c1ccccc1)S(=O)(=O)c1ccc(F)cc1 (configuration not stated): -23.1

Req: Lab note: need growth with RPMI-8226 leukemia for entry CC1(C)CC[C@]2(c3nnc(-c4ccncc4)o3)CC[C@]3(C)C(=CC[C@@H]4[C@@]5(C)CCC(=O)C(C)(C)[C@@H]5CC[C@]43C)[C@@H]2C1 , please look it up.
Resp: 62.4

Req: Field entry: COC(=O)c1nc(-c2ccccc2)oc1S(=O)(=O)n1nc(C)cc1N
Resp: 53.2

Req: Now try C=C(C)[C@@H]1CC[C@]2(C(=O)OCCOCCOCC[P+](c3ccccc3)(c3ccccc3)c3ccccc3)CC[C@]3(C)[C@H](CC[C@@H]4[C@@]5(C)CC[C@H](OC(=O)C(Cl)Cl)C(C)(C)[C@@H]5CC[C@]43C)[C@@H]12 .
Resp: -39.3

Req: Same again, this time with CC(C)NS(=O)(=O)c1cccc(-c2ccc3c(=O)n(CCCN)c4c(c3c2)C(=O)c2ccccc2-4)c1
Resp: 102

Req: Input Cn1nc(C(F)(F)F)c(-c2cc(C(F)(F)F)cc(C(F)(F)F)c2)c1-c1ccc(OCc2ccc(Cl)cc2)cc1O
Resp: -14.5

Req: Item: Cc1nccc2c3ccc(OCc4cn(-c5ccc(Cl)cc5)nn4)cc3n(CC(C)C)c12
Resp: -35.1

Req: Now this one: CCC1S/C(=N\N=C(/C)c2ccc[nH]2)N(c2ccccc2)C1=O (configuration not stated)
Resp: 57.5
